assay: TLC lipophilicity (RMW, standardized to log PEXP); type: physicochemical; conditions: TLC.CN/MeOH
Rule: measured chromatographic logP below 5 gets True; anything equal to or greater than 5 gets False.

Is the reported chromatographic logP for CCOc1ccc(Cc2cc([C@@H]3O[C@H](SC)[C@@H](O)[C@H](O)[C@H]3O)ccc2Cl)cc1 strictly below 5?
True

Now this one: CCOc1ccc(Cc2cc([C@@H]3O[C@H](CO)[C@@H](O)[C@H](O)[C@H]3O)ccc2Cl)cc1
True

Consider next the compound OC[C@H]1O[C@@H](c2ccc(Cl)c(Cc3ccc(O[C@H]4CCOC4)cc3)c2)[C@H](O)[C@@H](O)[C@@H]1O in the same way.
True

Quick one: CCOc1ccc(Cc2cc([C@]34OC[C@](CO)(O3)[C@@H](O)[C@H](O)[C@H]4O)ccc2Cl)cc1
True

Moving on to the next compound: Cc1ccc([C@@H]2O[C@H](CO)[C@@H](O)[C@H](O)[C@H]2O)cc1Cc1ccc(-c2ccc(F)cc2)s1
False

Each recorded value in this set is attributed to paper PMC11721022.
